Hello, the source for this data is paper PMC6176729, in case you need it.

Assay: Microsomal stability assay, rat liver microsomes
Format: in vitro ADME
Conditions: rat liver microsomes 0.5 mg/mL, 1 μM compound
Measured Metric: CLINT rat (mL/min/kg body weight)

# count of solved cases: 3
Record Smiles	CLINT rat / mL/min/kg body weight
O=C(N[C@@H](Cn1ccnc1)c1ccc(Cl)cc1Cl)c1ccc(-c2nnc(-c3ccc(C(F)(F)F)c(F)c3)o2)cc1	36
O=C(N[C@@H](Cn1ccnc1)c1ccc(Cl)cc1Cl)c1ccc(-c2nnc(-c3ccc(Cl)c(Cl)c3)o2)cc1	70
O=C(N[C@@H](Cn1ccnc1)c1ccc(Cl)cc1Cl)c1ccc(-c2nnc(-c3cc(F)cc(-c4ncncc4F)c3)o2)cc1	27.0

a. O=C(N[C@@H](Cn1ccnc1)c1ccc(Cl)cc1Cl)c1ccc(-c2nnc(-c3cccc(Br)c3)o2)cc1
b. O=C(N[C@@H](Cn1ccnc1)c1ccc(Cl)cc1Cl)c1ccc(-c2nnc(-c3cc(-c4ccccn4)ccc3F)o2)cc1
c. CS(=O)(=O)c1ccc(-c2nnc(-c3ccc(C(=O)N[C@@H](Cn4ccnc4)c4ccc(Cl)cc4Cl)cc3)o2)cc1Cl
Prompt line: Rank ascending by CLINT rat. Record the ranking as a list of labels in the requested order.
Response line: a, b, c
